- protocol.notes: gradient 5% acetonitrile 3 min, to 50% in 2 min, to 85% in 15 min, held 3 min, 100 µL/min
- condition: column: Zorbax Extend-C18 2.1 x 50 mm; eluents: water / acetonitrile, 0.1% formic acid
measurement.kind: RP-LC retention time (s)

a. Cc1ccc2oc(-c3nnc(C(=O)NCCN4CCOCC4)o3)c(C)c2c1
b. CN(C(=O)Cn1cccc1-c1nc(-c2ccc3c(c2)OCO3)no1)c1ccccc1
Exam item: Min RP-LC retention time? a | b Pick one and reply with its label.
Marked response: a

---

- protocol.notes: gradient 5% acetonitrile 3 min, to 50% in 2 min, to 85% in 15 min, held 3 min, 100 µL/min
- condition: column: Zorbax Extend-C18 2.1 x 50 mm; eluents: water / acetonitrile, 0.1% formic acid
measurement.kind: RP-LC retention time (s)

Examples with their reported RP-LC retention time follow.
Exam item: # query: RP-LC retention time of entry Cc1cccc(N2CCN(C(=O)c3ccc(CN4CCN(C(C)C)C(=O)C4=O)cc3)CC2)c1
Marked response: 759

Exam item: Would you mind doing CCCN1CCn2cc(S(=O)(=O)Nc3cc(OC)cc(OC)c3)cc2C1=O as well?
Marked response: 744

Exam item: Would you mind doing CCCN1C(=O)COc2ccc(-c3noc(CNS(=O)(=O)c4ccc(F)cc4)n3)cc21 as well?
Marked response: 884

Exam item: Would you mind doing CCc1ccc(NC(=O)N(C)CC2CCOC2)cc1 (stereo unspecified) as well?
Marked response: 739

Exam item: Would you mind doing CS(=O)(=O)Nc1ccc(C2(C(=O)NCc3ccco3)CCCCC2)cc1 as well?
Marked response: 806

Exam item: Would you mind doing O=C(c1cnccn1)N1CCCn2nc(-c3ccc(Cl)cc3)cc2C1 as well?
Marked response: 788

Exam item: Would you mind doing Cc1ccc2[nH]cc(CCNC(=O)NC3CCCCC3)c2c1 as well?
Marked response: 874

Exam item: Would you mind doing COC1CCOC2(CCN(C(=O)c3sccc3C)CC2)C1 (stereo unspecified) as well?
Marked response: 732

Exam item: Would you mind doing COc1ccc(OC)c(NC(=O)Cc2csc3nc(-c4ccc(OC)c(OC)c4)cn23)c1 as well?
Marked response: 738

Exam item: Would you mind doing CCCNC(=O)c1cnn(-c2cc(-c3nc(C(C)(C)C)no3)ccn2)c1C as well?
Marked response: 961

I. CCN1C(=O)COc2ccc(-c3csc(NC(=O)c4ccco4)n3)cc21
II. CN(C)c1cccc(C(=O)N2CCc3nc[nH]c3C2)c1
Exam item: Min RP-LC retention time? I | II Pick one and reply with its label.
Marked response: II

P. COCc1c(C(=O)O)nnn1-c1ccc(OC)c(OC)c1
Q. CCCCc1ccc(Nc2nc(C(=O)OCC)nc3ccccc23)cc1
Exam item: Which record would sort first by descending RP-LC retention time, P or Q ? Pick one and reply with its label.
Marked response: Q

---

- protocol.notes: gradient 5% acetonitrile 3 min, to 50% in 2 min, to 85% in 15 min, held 3 min, 100 µL/min
- condition: column: Zorbax Extend-C18 2.1 x 50 mm; eluents: water / acetonitrile, 0.1% formic acid
measurement.kind: RP-LC retention time (s)

Exam item: # query: RP-LC retention time of entry COc1ccccc1N1CCN(CCCCN2C(=O)CCC2=O)CC1
Marked response: 650

Exam item: Would you mind doing COc1ccc2c(c1)C1(CCN(C(=O)Nc3ccccc3F)C1)C(=O)N2 (stereo not given) as well?
Marked response: 701

Exam item: Would you mind doing CN(C)CCN(C(=O)CCc1ccccc1)c1nc2ccc(F)cc2s1 as well?
Marked response: 773

A. Cc1ccc(C)c(S(=O)(=O)Nc2ccc(-c3cn4ccc(C)nc4n3)cc2)c1
B. Cc1ccc(NC(=O)c2cc(C(C)C)n3nccc3n2)c(C)c1
Exam item: Which record would sort first by descending RP-LC retention time, A or B ? Pick one and reply with its label.
Marked response: B
(B: 1200 s, A: 678 s)

A. Cc1cccc(Oc2nccnc2N2CCC(C(=O)NCCC3=CCCCC3)CC2)c1
B. CCC(C(=O)NCCCN1CCCC1=O)n1c2ccccc2c2cnn(C)c(=O)c21 (stereo not given)
Exam item: Which record would sort first by descending RP-LC retention time, A or B ? Pick one and reply with its label.
Marked response: A
